All figures here come from patent US20110150767A1.

- Target Of Assay: human L-type amino acid transporter 1 (LAT1; S2-hLAT1 cells) (Homo sapiens)
- Construct: expressed in transfected cells; host or cells: S2 cells (S2-hLAT1 / S2-LAT1); mammalian cell line described in Morimoto et al., J Pharmacol Sci 2008, 108, 505-516
- Protocol: Inhibition of L-[14C]leucine uptake in S2-LAT1 cells
- Assay type: cell-based
- Condition Context: inhibition of 1.0 μM L-[14C]leucine uptake, 1.0 min, 37° C., NI = no inhibition at 100 μM
Measured Quantity: IC50 (µM)
Give just the number in µM; leave the unit off.

{"columns": ["Given Smiles", "Target Of Assay", "Unit Name", "IC50"],
 "data": [
  ["COc1cc(Cl)ccc1COc1c(I)cc(C[C@H](N)C(=O)O)cc1I", "human L-type amino acid transporter 1 (LAT1; S2-hLAT1 cells) (Homo sapiens)", "µM", 17.7],
  ["CCOc1ccc(COc2c(I)cc(C[C@H](N)C(=O)O)cc2I)c(OCC)c1", "human L-type amino acid transporter 1 (LAT1; S2-hLAT1 cells) (Homo sapiens)", "µM", 17.2]
]}

// switching to the query compound
**Q:** Please report the recorded IC50 for COc1ccc(COc2c(Br)cc(C[C@H](N)C(=O)O)cc2Br)cc1 .
**A:** 16.4

* * *

- Target Of Assay: human L-type amino acid transporter 1 (LAT1; S2-hLAT1 cells) (Homo sapiens)
- Construct: expressed in transfected cells; host or cells: S2 cells (S2-hLAT1 / S2-LAT1); mammalian cell line described in Morimoto et al., J Pharmacol Sci 2008, 108, 505-516
- Protocol: Inhibition of L-[14C]leucine uptake in S2-LAT1 cells
- Assay type: cell-based
- Condition Context: inhibition of 1.0 μM L-[14C]leucine uptake, 1.0 min, 37° C., NI = no inhibition at 100 μM
Under this convention, Condition met denotes IC50 strictly below 20 µM and Condition not met denotes IC50 at or above 20 µM.

{"columns": ["Compound", "Cat"],
 "data": [
  ["COc1ccc(COc2c(Cl)cc(C[C@H](N)C(=O)O)cc2Cl)c(OC)n1", "Condition met"],
  ["COc1ccc(COc2c(Cl)cc(C[C@H](N)C(=O)O)cc2Cl)cc1OC", "Condition met"],
  ["CCOc1cc(COc2c(Cl)cc(C[C@H](N)C(=O)O)cc2Cl)cc(OCC)c1OCC", "Condition met"]
]}

**Q:** Is it true that IC50 reported for COc1cccc(COc2c(Br)cc(C[C@H](N)C(=O)O)cc2Br)c1 is less than 20 µM?
**A:** Condition not met

**Q:** Now give it for COc1cc(OC)c(OC)cc1COc1c(Cl)cc(C[C@H](N)C(=O)O)cc1Cl too.
**A:** Condition not met

* * *

- Target Of Assay: human L-type amino acid transporter 2 (LAT2; S2-hLAT2 cells) (Homo sapiens, UniProt Q9UHI5)
- Construct: expressed in transfected cells; host or cells: S2 cells (S2-hLAT2 / S2-LAT2); mammalian cell line described in Morimoto et al., J Pharmacol Sci 2008, 108, 505-516
- Sequence (Q9UHI5 whole entry): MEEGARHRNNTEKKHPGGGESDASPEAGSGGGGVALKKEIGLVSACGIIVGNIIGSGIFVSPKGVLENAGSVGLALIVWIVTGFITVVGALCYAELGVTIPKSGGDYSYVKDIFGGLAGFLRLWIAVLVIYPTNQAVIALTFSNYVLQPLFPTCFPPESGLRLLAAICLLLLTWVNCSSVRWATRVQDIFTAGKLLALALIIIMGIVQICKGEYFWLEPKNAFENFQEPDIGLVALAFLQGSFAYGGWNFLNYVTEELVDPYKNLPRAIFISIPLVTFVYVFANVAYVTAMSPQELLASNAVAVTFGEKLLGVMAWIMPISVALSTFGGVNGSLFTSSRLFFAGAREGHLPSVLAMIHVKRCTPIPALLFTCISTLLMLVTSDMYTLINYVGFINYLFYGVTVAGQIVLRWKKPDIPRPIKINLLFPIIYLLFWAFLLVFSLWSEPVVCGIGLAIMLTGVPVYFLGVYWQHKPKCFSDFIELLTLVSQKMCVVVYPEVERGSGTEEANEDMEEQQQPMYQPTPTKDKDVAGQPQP
- Sequence (P08195 102-630 partner): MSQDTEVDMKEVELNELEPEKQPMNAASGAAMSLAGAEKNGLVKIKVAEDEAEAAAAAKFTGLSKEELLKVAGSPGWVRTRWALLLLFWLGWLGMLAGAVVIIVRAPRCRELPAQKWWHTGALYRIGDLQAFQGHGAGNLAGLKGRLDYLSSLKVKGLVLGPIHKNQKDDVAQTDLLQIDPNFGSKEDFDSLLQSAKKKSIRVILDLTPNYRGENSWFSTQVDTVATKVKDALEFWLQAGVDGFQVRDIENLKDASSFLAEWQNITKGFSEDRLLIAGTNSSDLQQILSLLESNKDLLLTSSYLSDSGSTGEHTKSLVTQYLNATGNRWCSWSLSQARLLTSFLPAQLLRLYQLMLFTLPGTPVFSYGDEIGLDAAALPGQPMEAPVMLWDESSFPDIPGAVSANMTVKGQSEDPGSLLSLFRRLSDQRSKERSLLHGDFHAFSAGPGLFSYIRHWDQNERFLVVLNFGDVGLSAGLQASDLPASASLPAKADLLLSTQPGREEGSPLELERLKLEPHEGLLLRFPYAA
- Protocol: Inhibition of L-[14C]leucine uptake in S2-LAT2 cells
- Assay type: cell-based
- Condition Context: inhibition of 1.0 μM L-[14C]leucine uptake, 1.0 min, 37° C., NI = no inhibition at 100 μM
Measured Quantity: IC50

**Q:** Which IC50 is listed for COc1ccc(COc2c(I)cc(C[C@H](N)C(=O)O)cc2I)c(OC)c1OC [compound 43] ?
**A:** > 100 µM

* * *

- Target Of Assay: human L-type amino acid transporter 1 (LAT1; S2-hLAT1 cells) (Homo sapiens, UniProt Q01650)
- Construct: expressed in transfected cells; host or cells: S2 cells (S2-hLAT1 / S2-LAT1); mammalian cell line described in Morimoto et al., J Pharmacol Sci 2008, 108, 505-516
- Sequence (Q01650 whole entry): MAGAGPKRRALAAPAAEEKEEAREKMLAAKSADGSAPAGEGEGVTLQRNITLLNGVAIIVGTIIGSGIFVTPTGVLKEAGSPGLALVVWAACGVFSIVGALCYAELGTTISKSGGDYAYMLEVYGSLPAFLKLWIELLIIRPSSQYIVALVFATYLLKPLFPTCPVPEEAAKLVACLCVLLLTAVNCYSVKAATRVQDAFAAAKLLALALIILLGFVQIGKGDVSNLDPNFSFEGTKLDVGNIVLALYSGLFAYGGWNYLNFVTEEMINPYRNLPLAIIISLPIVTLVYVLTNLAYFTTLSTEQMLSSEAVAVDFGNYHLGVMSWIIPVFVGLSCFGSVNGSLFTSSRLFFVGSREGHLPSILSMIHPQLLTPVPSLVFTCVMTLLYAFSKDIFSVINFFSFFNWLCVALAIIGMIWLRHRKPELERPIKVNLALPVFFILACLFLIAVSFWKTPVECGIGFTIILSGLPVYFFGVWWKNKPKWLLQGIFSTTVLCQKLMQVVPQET
- Sequence (P08195 102-630 partner): as the sequence (P08195 102-630 partner) above
- Protocol: Inhibition of L-[14C]leucine uptake in S2-LAT1 cells
- Format: cell-based
- Condition Context: inhibition of 1.0 μM L-[14C]leucine uptake, 1.0 min, 37° C., NI = no inhibition at 100 μM
IC50 for assorted compounds
Could you give me the number in µM? Just the number is fine.

{"columns": ["Given Smiles", "Unit Name", "IC50"],
 "data": [
  ["CCOc1ccc(COc2c(Cl)cc(C[C@H](N)C(=O)O)cc2Cl)c(OCC)c1", "µM", 2.2]
]}

**Q:** Given the entry N[C@@H](Cc1cc(I)c(OCCc2ccc([N+](=O)[O-])cc2)c(I)c1)C(=O)O , report its measured IC50.
**A:** 28.2

**Q:** Item: COc1cccc(CCOc2c(Br)cc(C[C@H](N)C(=O)O)cc2Br)c1
**A:** 6.3

**Q:** Continue with COc1ccc(CCOc2c(Br)cc(C[C@H](N)C(=O)O)cc2Br)cc1
**A:** 6.8

**Q:** Query COc1ccc(COc2c(I)cc(C[C@H](N)C(=O)O)cc2I)c(C)c1C next
**A:** 7.7

**Q:** Also COc1ccc(COc2c(Cl)cc(C[C@H](N)C(=O)O)cc2Cl)c(OC)c1OC , if possible.
**A:** 8.1

* * *

- Target Of Assay: human L-type amino acid transporter 1 (LAT1; S2-hLAT1 cells) (Homo sapiens)
- Construct: expressed in transfected cells; host or cells: S2 cells (S2-hLAT1 / S2-LAT1); mammalian cell line described in Morimoto et al., J Pharmacol Sci 2008, 108, 505-516
- Protocol: Inhibition of L-[14C]leucine uptake in S2-LAT1 cells
- Type: cell-based
- Condition Context: inhibition of 1.0 μM L-[14C]leucine uptake, 1.0 min, 37° C., NI = no inhibition at 100 μM
Measured Quantity: IC50

**Q:** Sample COc1ccccc1COc1c(Cl)cc(CC(C)(N)C(=O)O)cc1Cl (racemic) [compound 148] — what was its IC50?
**A:** > 100 µM

**Q:** One more compound: COc1ccc(COc2c(I)cc(C[C@H](N)C(=O)O)cc2I)c(OC)c1 [compound 41]
**A:** 5 µM

**Q:** And CC(N)(Cc1cc(Cl)c(OCc2ccncc2)c(Cl)c1)C(=O)O (racemic) [compound 152] ?
**A:** > 100 µM

* * *

- Target Of Assay: human L-type amino acid transporter 1 (LAT1; S2-hLAT1 cells) (Homo sapiens, UniProt Q01650)
- Construct: expressed in transfected cells; host or cells: S2 cells (S2-hLAT1 / S2-LAT1); mammalian cell line described in Morimoto et al., J Pharmacol Sci 2008, 108, 505-516
- Protocol: Inhibition of L-[14C]leucine uptake in S2-LAT1 cells
- Type: cell-based
- Condition Context: inhibition of 1.0 μM L-[14C]leucine uptake, 1.0 min, 37° C., NI = no inhibition at 100 μM
Measured Quantity: IC50 (µM)
The response must be a number in µM with no trailing unit.

{"columns": ["Compound", "Measured Quantity", "Val"],
 "data": [
  ["N[C@@H](Cc1cc(I)c(OCc2ccc3c(c2)OCO3)c(I)c1)C(=O)O", "IC50", 24.1],
  ["N[C@@H](Cc1cc(Br)c(OCCc2ccc(C(F)(F)F)cc2)c(Br)c1)C(=O)O", "IC50", 43.2],
  ["N[C@@H](Cc1cc(Br)c(OCCc2cccc(C(F)(F)F)c2)c(Br)c1)C(=O)O", "IC50", 31.8],
  ["COc1ccccc1COc1c(Br)cc(C[C@H](N)C(=O)O)cc1Br", "IC50", 10.2],
  ["COc1ccc(COc2c(I)cc(C[C@H](N)C(=O)O)cc2I)c(OC)c1OC", "IC50", 23.6]
]}

**Q:** Can you look up the measured IC50 of COc1ccc(COc2c(Cl)cc(C[C@H](N)C(=O)O)cc2Cl)c(OC)c1 for me?
**A:** 0.8

**Q:** Same read-out for COc1ccc(COc2c(Cl)cc(CC(C)(N)C(=O)O)cc2Cl)cc1 (racemic) ?
**A:** 6.7

**Q:** Then what about the compound COc1ccc(COc2c(Cl)cc(C[C@H](N)C(=O)O)cc2Cl)cc1[N+](=O)[O-] ?
**A:** 8.4

**Q:** Follow-up entry: COC(COc1c(I)cc(C[C@H](N)C(=O)O)cc1I)c1ccccc1 (stereo partly drawn)
**A:** 8.8

**Q:** # repeat for N[C@@H](Cc1cc(Cl)c(OCCc2ccccc2)c(Cl)c1)C(=O)O
**A:** 50.7

**Q:** Now try CCOc1ccc(COc2c(Cl)cc(C[C@H](N)C(=O)O)cc2Cl)cc1OCC .
**A:** 2.9

* * *

Some compounds, each annotated with its measured IC50.
- Target Of Assay: human L-type amino acid transporter 2 (LAT2; S2-hLAT2 cells) (Homo sapiens, UniProt Q9UHI5)
- Construct: expressed in transfected cells; host or cells: S2 cells (S2-hLAT2 / S2-LAT2); mammalian cell line described in Morimoto et al., J Pharmacol Sci 2008, 108, 505-516
- Protocol: Inhibition of L-[14C]leucine uptake in S2-LAT2 cells
- Type: cell-based
- Condition Context: inhibition of 1.0 μM L-[14C]leucine uptake, 1.0 min, 37° C., NI = no inhibition at 100 μM

Examples with answers:
{"columns": ["Compound", "IC50"],
 "data": [
  ["N[C@@H](Cc1cc(I)c(OCC(=O)c2ccccc2)c(I)c1)C(=O)O [compound 34]", "47.9 µM"],
  ["COc1ccc(COc2c(Cl)cc(C[C@H](N)C(=O)O)cc2Cl)c(OC)c1 [compound 133]", "5.5 µM"],
  ["N[C@@H](Cc1cc(Br)c(OCCc2ccc(C(F)(F)F)cc2)c(Br)c1)C(=O)O [compound 58]", "> 100 µM"],
  ["CCOc1ccc(COc2c(I)cc(C[C@H](N)C(=O)O)cc2I)cc1OCC [compound 49]", "> 100 µM"],
  ["COc1ccc(COc2c(Cl)cc(C[C@H](N)C(=O)O)cc2Cl)c(OC)c1OC [compound 136]", "> 100 µM"],
  ["COc1cccc(COc2c(Cl)cc(CC(C)(N)C(=O)O)cc2Cl)c1 (racemic) [compound 147]", "> 100 µM"],
  ["N[C@@H](Cc1cc(I)c(OCc2ccc([N+](=O)[O-])cc2)c(I)c1)C(=O)O [compound 37]", "8.2 µM"],
  ["COc1ccc(COc2c(Cl)cc(C[C@H](N)C(=O)O)cc2Cl)c(OC)n1 [compound 135]", "32.5 µM"]
]}

**Q:** IC50 for N[C@@H](Cc1cc(Cl)c(OCCc2ccccc2)c(Cl)c1)C(=O)O [compound 122] ?
**A:** > 100 µM

**Q:** Now the same for COc1cc(COc2c(I)cc(C[C@H](N)C(=O)O)cc2I)cc(OC)c1OC [compound 45]
**A:** > 100 µM

**Q:** Also need N[C@@H](Cc1cc(Cl)c(OCc2ccc3c(c2)OCO3)c(Cl)c1)C(=O)O [compound 130] , thanks.
**A:** 27.3 µM

**Q:** // query: N[C@@H](Cc1cc(I)c(OCCc2ccc([N+](=O)[O-])cc2)c(I)c1)C(=O)O [compound 36]
**A:** > 100 µM

**Q:** Also, N[C@@H](Cc1cc(Br)c(OCCc2cccc(C(F)(F)F)c2)c(Br)c1)C(=O)O [compound 59] please.
**A:** > 100 µM
